Tested on: SF-268 CNS
Assay: NCI tumour cell line growth inhibition, 48 h
Please provide measured TGI for the entries that follow.

input: # input compound: `COC(=O)c1cc(CC2Cc3cc4c(cc3C2)CCC4)cc2c1CCC2` ; wanted: its TGI
output: > 100 µM

input: # input compound: `CSC(N)=Nc1cccc2ccccc12` ; wanted: its TGI
output: > 10 µM

input: # input compound: `COc1ccc2c3ccc4c(c3n(C)c2c1)C(=O)C=CC4=O` ; wanted: its TGI
output: > 100 µM

input: # input compound: CC(C)CC(N=Cc1nc(-c2ccccc2)oc1O)C(=O)O (stereo unspecified) ; wanted: its TGI
output: > 100 µM

input: # input compound: `CC[C@H](Nc1cc(C)nc(N)n1)c1nc2cccc(NCc3ccc(C(=O)NO)cc3)c2c(=O)n1-c1ccccc1` ; wanted: its TGI
output: 3.49 µM

input: # input compound: `N#Cc1nc(-c2ccccc2C(=O)O)oc1N` ; wanted: its TGI
output: > 100 µM

input: # input compound: `C[Si](C)(C)/N=C1\N2C(=NC1(C(F)(F)F)C(F)(F)F)Sc1ccccc12` ; wanted: its TGI
output: > 50 µM

input: # input compound: `COc1cc(-c2ccc(N=Nc3c(S(=O)(=O)O)cc4cc(S(=O)(=O)O)cc(N)c4c3O)c(OC)c2)ccc1N=Nc1c(S(=O)(=O)O)cc2cc(S(=O)(=O)O)cc(N)c2c1O` ; wanted: its TGI
output: > 100 µM

input: # input compound: `CCSc1nc2[nH]c(=S)[nH]c(=S)c2c(-c2ccc(OC)c(OC)c2)c1C#N` ; wanted: its TGI
output: 46.4 µM

input: # input compound: `CCc1ccccc1N1C(=O)C(=O)C(c2nc3ccccc3s2)C(=O)C1=O` ; wanted: its TGI
output: > 100 µM

input: # input compound: `NC1CCCCC1N.O=NN1CCCCCC1(P(=O)([O-])[O-])P(=O)([O-])[O-].[Na+].[Pt+2]` ; wanted: its TGI
output: > 100 µM

input: # input compound: CCOc1ccc(NC(=O)CC2C(=O)Nc3ccccc3S2=O)cc1 (stereo unspecified) ; wanted: its TGI
output: > 100 µM

input: # input compound: `O=C1C=C(Nc2ccc([N+](=O)[O-])cc2)c2ccccc2C1=O` ; wanted: its TGI
output: 20.6 µM

input: # input compound: Cc1cc(C23OC4COC(C)(C)OC4C2OC(C)(C)O3)nc2ccccc12 (stereo unspecified) ; wanted: its TGI
output: > 100 µM

input: # input compound: COc1cc2c(cc1OC)C1c3ccccc3CCCN1CC2 (stereo unspecified) ; wanted: its TGI
output: > 100 µM

input: # input compound: O=C(O)C(C(C(=O)O)P(=O)(O)O)P(=O)(O)O (stereo unspecified) ; wanted: its TGI
output: > 100 µM

input: # input compound: `CC1=NN(C2=NS(=O)(=O)c3ccccc3N2C)C(=O)C1` ; wanted: its TGI
output: > 100 µM

input: # input compound: `Cc1ccc(-c2c(C#N)c(-c3ccccc3)c(C#N)c(=O)n2NS(=O)(=O)c2ccc(C)cc2)cc1` ; wanted: its TGI
output: > 100 µM

input: # input compound: C=C1C(=O)[C@@]23CC[C@@H]4[C@@]5(C)CCC[C@@]4(OC5=O)C2(C)CC[C@]1(OC)C3 (stereo partly specified) ; wanted: its TGI
output: 7.2 µM

input: # input compound: O=C(O)CCC(N=C(C(=NC(CCC(=O)O)C(=O)O)c1ccccc1)c1ccccc1)C(=O)O (stereo unspecified) ; wanted: its TGI
output: > 100 µM

input: # input compound: COC12COC(=O)C1C(c1ccc3c(c1)OCO3)c1cc3c(cc1O2)OCO3 (stereo unspecified) ; wanted: its TGI
output: > 100 µM
